Data origin: ChEMBL document CHEMBL5226315

target of assay: Serine/threonine-protein phosphatase 2A catalytic subunit alpha isoform (Homo sapiens, UniProt P67775)
Sequence (P67775 whole entry, canonical isoform): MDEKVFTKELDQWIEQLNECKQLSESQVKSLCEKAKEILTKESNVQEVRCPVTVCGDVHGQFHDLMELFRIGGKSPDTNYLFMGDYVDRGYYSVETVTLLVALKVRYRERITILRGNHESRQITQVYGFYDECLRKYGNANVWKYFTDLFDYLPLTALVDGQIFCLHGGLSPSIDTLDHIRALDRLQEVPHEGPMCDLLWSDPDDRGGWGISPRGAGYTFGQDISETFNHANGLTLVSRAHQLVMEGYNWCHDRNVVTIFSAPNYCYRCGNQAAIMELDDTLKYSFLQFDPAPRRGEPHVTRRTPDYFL
protocol notes: Inhibition of PP2A (unknown origin)
measure: IC50 (nM)
The response must be a number in nM with no trailing unit.

# input For the compound C[C@@]12C(=O)OC(=O)[C@]1(C)[C@H]1CC[C@@H]2O1 [CANTHARIDIN] , report IC50.
# output 160

---

target of assay: Serine/threonine-protein phosphatase 5 (Homo sapiens)
protocol notes: Inhibition of PP5 (unknown origin)
Starred links: 1 amine or outer side, 2 acyl side, 3 side chain; linkers in the order of their positions; H or OH if unused. Positions of bridges follow the written chain, without caps; N, C: chain ends. Non-standard residues stand in square brackets, D forms with d. Residues, ends and D or L forms follow the SMILES beside them. Adda = CO[C@@H](Cc1ccccc1)[C@@H](C)/C=C(C)/C=C/[C@H](N[*:1])[C@H](C)C(=O)[*:2]; dAsp(3S-Me) = C[C@H](C(=O)[*:3])[C@@H](N[*:1])C(=O)[*:2]; d(γGlu) = O=C(O)[C@@H](CCC(=O)[*:2])N[*:1]; NMeDha = C=C(NC)C(=O)O
measure: pIC50
Note on units: pIC50 is unitless, being -log10 of a concentration expressed in mol/L.

C=C1C(=O)N[C@H](C)C(=O)N[C@@H](CC(C)C)C(=O)N[C@@H](C(=O)O)[C@H](C)C(=O)N[C@@H](CCCNC(=N)N)C(=O)N[C@@H](/C=C/C(C)=C/[C@H](C)[C@H](Cc2ccccc2)OC)[C@H](C)C(=O)N[C@@H](C(=O)O)CCC(=O)N1C [MICROCYSTIN-LR] (R[Adda][d(γGlu)][NMeDha][dA]L[dAsp(3S-Me)]-OH; lactam N-7) : 9.00
C[C@@]12C(=O)OC(=O)[C@]1(C)[C@H]1CC[C@@H]2O1 [CANTHARIDIN] : 6.22
CO[C@H]([C@H](O)CC(=O)[C@@H](C)[C@@H](O)CC[C@@H](C)[C@@H]1O[C@]2(CC[C@@H](C)[C@H](CC[C@H](C)C(C)=O)O2)CC[C@@H]1C)[C@H](OC(=O)C[C@@H](O)C1=C(C)C(=O)OC1=O)C(C)C [TAUTOMYCIN] : 8.00

Now for the compound whose pIC50 we want.
# input For the compound C=C1[C@@H](O)[C@@H]2O[C@]3(CC[C@H](/C=C/[C@H](C)[C@@H]4CC(C)=C[C@@]5(OC(C[C@@](C)(O)C(=O)O)CC[C@H]5O)O4)O3)CC[C@H]2O[C@@H]1[C@@H](O)C[C@H](C)[C@H]1O[C@@]2(CCCCO2)CC[C@H]1C (some centres undefined) , report pIC50.
# output 8.46

---

target of assay: Serine/threonine-protein phosphatase 5 (Homo sapiens, UniProt P53041)
Sequence (P53041 whole entry, the tested form may be a part): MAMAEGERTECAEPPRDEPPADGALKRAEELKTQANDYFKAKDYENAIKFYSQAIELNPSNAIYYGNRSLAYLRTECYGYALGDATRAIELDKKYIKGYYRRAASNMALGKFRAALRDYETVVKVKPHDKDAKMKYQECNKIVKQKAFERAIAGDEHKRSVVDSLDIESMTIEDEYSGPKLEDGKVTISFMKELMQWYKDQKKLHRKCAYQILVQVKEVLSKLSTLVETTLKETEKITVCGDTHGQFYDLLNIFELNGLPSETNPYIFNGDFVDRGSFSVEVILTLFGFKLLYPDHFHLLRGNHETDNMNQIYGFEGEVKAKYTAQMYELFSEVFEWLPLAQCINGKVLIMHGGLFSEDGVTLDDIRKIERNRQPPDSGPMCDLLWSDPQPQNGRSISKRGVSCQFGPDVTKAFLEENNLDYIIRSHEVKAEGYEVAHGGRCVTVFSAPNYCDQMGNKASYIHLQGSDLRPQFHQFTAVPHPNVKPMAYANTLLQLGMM
protocol notes: Inhibition of human PP5 using [3H]-phosphohistone as substrate
The following compounds are listed with their measured pIC50 values.
Note on units: pIC50 is unitless, being -log10 of a concentration expressed in mol/L.

C[C@@]12C(=O)OC(=O)[C@]1(C)[C@H]1CC[C@@H]2O1 [CANTHARIDIN] : 6.40

Now for the compound whose pIC50 we want.
# input For the compound COC[C@@H]([C@H](O)[C@H](O)C(=O)NCC[C@H](C)c1nc(/C=C/C[C@@H]2O[C@]3(C[C@@H](O)[C@@H]2C)O[C@H]([C@H](C[C@H](O)[C@H](C)[C@H](O)[C@H](C)/C=C(C)/C(C)=C/C=C/C(C)=C\C#N)OC)[C@H](OP(=O)(O)O)C3(C)C)co1)N(C)C [CALYCULIN A] , report pIC50.
# output 8.52

---

target of assay: Serine/threonine-protein phosphatase 5 (Homo sapiens)
protocol notes: Inhibition of PP5 (unknown origin) using [3H]-phosphohistone as substrate by liquid scintillation counting analysis
measure: IC50 (nM)
The response must be a number in nM with no trailing unit.

# input For the molecule C=C/C(=C/C(=O)C[C@H](C)C[C@@H](C)CC[C@H](O)[C@H](C)C(=O)C[C@@H](O)[C@@H](C)[C@@H](C)OC(=O)C[C@@H](O)C1=C(C)C(=O)OC1=O)CC , report IC50.
# output 11.9

---

protocol notes: Inhibition of PP3 (unknown origin) using [3H]-phosphohistone as substrate by liquid scintillation counting analysis
Parameters: species or system Homo sapiens
The following molecules are listed with their measured IC50 values.

Below are worked cases with known answers.
COC[C@@H]([C@H](O)[C@H](O)C(=O)NCC[C@H](C)c1nc(/C=C/C[C@@H]2O[C@]3(C[C@@H](O)[C@@H]2C)O[C@H]([C@H](C[C@H](O)[C@H](C)[C@H](O)[C@H](C)/C=C(C)/C(C)=C/C=C/C(C)=C\C#N)OC)[C@H](OP(=O)(O)O)C3(C)C)co1)N(C)C : > 1 µM
C[C@@](O)(/C=C/[C@H]1CC=CC(=O)O1)[C@@H](C[C@@H](O)\C=C/C=C\C=C\CO)OP(=O)(O)O : > 100 µM
C/C=C1/C(=O)N[C@H](OC(=O)O)[C@H](C)C(=O)N[C@@H](CCCNC(=N)N)C(=O)N[C@@H](/C=C/C(C)=C/[C@H](C)[C@H](Cc2ccccc2)OC)[C@H](C)C(=O)N[C@H](OC(=O)O)CCC(=O)N1C : > 1 µM

Now for the molecule whose IC50 we want.
# input For the molecule C=C/C(=C/C(=O)C[C@H](C)C[C@@H](C)CC[C@H](O)[C@H](C)C(=O)C[C@@H](O)[C@@H](C)[C@@H](C)OC(=O)C[C@@H](O)C1=C(C)C(=O)OC1=O)CC , report IC50.
# output 17.5 µM

---

target of assay: Serine/threonine-protein phosphatase 2A catalytic subunit alpha isoform (Homo sapiens)
protocol notes: Inhibition of human PP2AC using [3H]-phosphohistone as substrate
The following compounds are listed with their measured IC50 values.
The response must be a number in nM with no trailing unit.

COC[C@@H]([C@H](O)[C@H](O)C(=O)NCC[C@H](C)c1nc(/C=C/C[C@@H]2O[C@]3(C[C@@H](O)[C@@H]2C)O[C@H]([C@H](C[C@H](O)[C@H](C)[C@H](O)[C@H](C)/C=C(C)/C(C)=C/C=C/C(C)=C\C#N)OC)[C@H](OP(=O)(O)O)C3(C)C)co1)N(C)C : 0.25

Now for the compound whose IC50 we want.
# input For the compound CN1CCN(C(=O)C2C(C(=O)O)C3CC[C@@H]2O3)CC1 (single isomer, unassigned) , report IC50.
# output 400

---

protocol notes: Inhibition of PP1 (unknown origin)
Parameters: species or system Homo sapiens
The following molecules are listed with their measured IC50 values.
The response must be a number in nM with no trailing unit.

C[C@@]12C(=O)OC(=O)[C@]1(C)[C@H]1CC[C@@H]2O1 : 1700

Now for the molecule whose IC50 we want.
# input For the molecule CN1CCN(C(=O)C2C(C(=O)O)C3CC[C@@H]2O3)CC1 (single isomer, unassigned) , report IC50.
# output 2.4

---

target of assay: Serine/threonine-protein phosphatase 5 (Homo sapiens)
protocol notes: Activation of recombinant human PP5 (16 to 499 residues) Escherichia coli BL21 (DE3) using pNPP incubated for 60 mins
The following molecules are listed with their measured pEC50 values.
Note on units: pEC50 is unitless, being -log10 of a concentration expressed in mol/L.

O=C(O)CCCCCCCCCCCC[C@@H]1C=CCC1 [CHAULMOOGRIC ACID] : 3.89

Now for the molecule whose pEC50 we want.
# input For the molecule CCCCC/C=C\C/C=C\C/C=C\C/C=C\CCCC(=O)O [ARACHIDONIC ACID] , report pEC50.
# output 4.11
